System: 677734-321-R-J1-PDC complex spheroid viability;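 further: spheroids exposed to compounds for one week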
assay protocol: Anticancer human tumor 677734-321-R-J1-PDC patient-derived soft tissue sarcoma cell line growth inhibition [POLQ]
protocol conditions: second compound 0.0316 µM; first compound 3.16 µM; active compounds read low
Description: Multicellular complex tumor spheroid response to Polymerase (POL) inhibitors (novobiocin, ART-558, RP6685) in combination with a variety of drugs and investigational agents in selected tumor cell lines The POL inhibitors (novobiocin, ART-558, and RP6685) were evaluated both individually and in combination with standard of care and investigational anticancer small molecules within a complex spheroid model of solid tumors. . […]
# note: boundary value 60% maps to Criterion not met; viability, T/C below it maps to Criterion met

Problem: Is the reported viability, T/C for O=C(c1cc(Cc2n[nH]c(=O)c3ccccc23)ccc1F)N1CCN(C(=O)C2CC2)CC1 + Nc1ccc(C#CCN(C(=O)Cc2ncc(C(F)(F)F)cc2C(F)(F)F)c2ccc(F)cc2)nn1 strictly below 60%?
Result: Criterion not met

Problem: Is the reported viability, T/C for CC(C)n1c(=O)n(C)c2cnc3cc(F)c(-c4ccc(OCCCN5CCCCC5)nc4)cc3c21 + Cc1cccc(N(C)C(=O)C2C(O)CCN2c2nc(C)cc(C(F)(F)F)c2C#N)c1 strictly below 60%?
Result: Criterion not met

Problem: Is the reported viability, T/C for O=C(c1cc(Cc2n[nH]c(=O)c3ccccc23)ccc1F)N1CCN(C(=O)C2CC2)CC1 + COC1C(OC(N)=O)C(O)C(Oc2ccc3c(O)c(NC(=O)c4ccc(O)c(CC=C(C)C)c4)c(=O)oc3c2C)OC1(C)C strictly below 60%?
Result: Criterion not met

Problem: Is the reported viability, T/C for CC1COCCN1c1cc(-c2ccnn2C)c2ccnc(-c3ccn[nH]3)c2n1 (stereo not given) + Nc1ccc(C#CCN(C(=O)Cc2ncc(C(F)(F)F)cc2C(F)(F)F)c2ccc(F)cc2)nn1 strictly below 60%?
Result: Criterion met
